Biological target: T1, HLA class I molecule A24.02
T1 construct: Purified MHC class I complex; also called HLA-A24:02
Experiment: competition with radiolabeled reference peptide on purified MHC I
Experimental: Peptides were incubated at varying concentrations with these complexes for 2 days, and the amount of remaining radiolabeled peptide bound to […] was measured using size exclusion gel-filtration.
readout.label: log10 of IC50 (log10 of the value in nM)
// stored as log10 of IC50 expressed in nM

binder	log10 of IC50
LLYITAFFLL (also called NDUFC2 (-KCDT14)(-1))	1.78

Ask: Would you kindly share the measured log10 of IC50 for MFLKAESKI (also called GATA3 . . ; CSNH) ?
Result: 2.52

Ask: Would you kindly share the measured log10 of IC50 for LYITAFFLL (also called NDUFC2 (-KCDT14)(-1)) ?
Result: -1.00

Ask: Would you kindly share the measured log10 of IC50 for FQMQPLSLM (also called JAK1(-1)) ?
Result: 4.16

Ask: Would you kindly share the measured log10 of IC50 for LYITAFFFCW (also called NDUFC2 (-KCDT14)(+1)) ?
Result: 1.66

Ask: Would you kindly share the measured log10 of IC50 for LYITAFFLLD (also called NDUFC2 (-KCDT14)(-1)) ?
Result: -0.40

Ask: Would you kindly share the measured log10 of IC50 for ALSASNSCF (also called FRG1B, L52S) ?
Result: 4.21
